# Test system: T1, extracellular domain of human IL23R (hIL23R ECD) (human, UniProt Q5VWK5 24-355)
# T1 construct: The immunogen was an ECD-human IgG1 hinge-Fc fusion
# T1 sequence: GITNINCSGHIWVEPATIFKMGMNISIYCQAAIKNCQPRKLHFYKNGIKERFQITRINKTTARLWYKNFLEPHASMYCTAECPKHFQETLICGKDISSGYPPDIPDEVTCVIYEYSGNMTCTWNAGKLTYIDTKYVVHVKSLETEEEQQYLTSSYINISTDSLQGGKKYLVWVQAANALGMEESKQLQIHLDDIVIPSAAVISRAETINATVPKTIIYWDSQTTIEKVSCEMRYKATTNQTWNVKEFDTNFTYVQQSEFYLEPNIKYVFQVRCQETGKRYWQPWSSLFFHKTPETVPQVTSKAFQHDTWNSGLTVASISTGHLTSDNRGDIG
# Experiment notes: periplasmic extract ELISA (PE-ELISA) of phage clones, colorimetric
Readout name: binding result

1. hIL23R_VHH3 (VHH, Phagemid clone with his-tag, periplasmic extract) VHH: QVQLQESGGGSVQAGESLRLSCAASGYTYCTYDMTWYRQAPGKKREFVSGIHSDGTTSYADSVKGRFTISQDNAENTVYLQMNSLKPEDTAMYYCKTDPIATITRRCDSYWGQGTQVTVSS :: binds
2. hIL23R_VHH5 (VHH, Phagemid clone with his-tag, periplasmic extract) VHH: QVQLQESGGGSVQAGGSLRLSCAASGYTYCSYDMSWYRQAPGKKREFVSAIASDGSTSYADSLKGRFTISQDNAKNTVYLQMNSLKPEDTAMYYCKTDPHVQSSGGYCPPYWGQGTQVTVSS :: binds
3. hIL23R_VHH15 (VHH, Phagemid clone with his-tag, periplasmic extract) VHH: QVQLQESGGGSVQAGGSLRLSCAASPGTYTSRYMGWFRQAPGKEREGVATIWPAGGNTVYADSVKGRFTISQDGAKKTVYLQMNSLKPEDTAMYYCAAAKYGGTSLAPYTYNYWGQGTQVTVSS :: binds
4. hIL23R_VHH17 (VHH, Phagemid clone with his-tag, periplasmic extract) VHH: QVQLQESGGGSVQAGGSLRLSCTASGYTFSTMKYMGWFRQAPGKEREGVAAIWIAAGNTYYADSVKGRFTISQDNTKNTVYLQMNSLKPEDTALYYCAAARYGFVPSTWYLPERYNYWGQGTQVTVSS :: binds
5. hIL23R_VHH1 (VHH, Phagemid clone with his-tag, periplasmic extract) VHH: QVQLQESGGGSVQAGGSLRLSCAASGYTYCSYDMSWYRQAPGKKREFVSAFNSDGTTSYADSVKGRFTISQDKAKNTVYLQMNSLKPEDTAMYYCKTDPHVQSSGGYCPPYWGQGTQVTVSS :: binds
6. hIL23R_VHH11 (VHH, Phagemid clone with his-tag, periplasmic extract) VHH: QVQLQESGGGSVQAGGSLRLSCAASGYTYCSYDMTWYRQAPGKKREFVSAIDSDGSTSYADSVKGRFTISQDNAKNTVYLQMNSLKPEDTAMYYCKTDPIATISRRCDSYWGQGTQVTVSS :: binds
7. hIL23R_VHH9 (VHH, Phagemid clone with his-tag, periplasmic extract) VHH: QVQLQESGGGLVQAGGSLRLSCAASGYTYCSYDMSWYRQAPGKERKFVSSINSDGTTSYADSVKGRFTISQDNAKNTVYLQMNSLKPEDTAMYYCKTDPQTRPGKPCADYWGQGTQVTVSS :: binds
8. hIL23R_VHH13 (VHH, Phagemid clone with his-tag, periplasmic extract) VHH: QVQLQESGGGSVQAGGSLRLSCAASGYTYCSYDMKWYRQAPGKKREFVSAIDSDGSTSYADSVKGRFTISQDNAKNTVYLQMNSLKPEDTAMYYCKTEGTIPVGVCPNYWGQGTQVTVSS :: binds

Origin of values: patent US20230279126A1
